target: Nuclear receptor ROR-gamma (Mus musculus); test: qHTS for inhibitors of ROR gamma transcriptional activity; conditions: Drosophila S2 Gal4-RORgamma UAS-luciferase reporter, 20 h; series mostly up to 53.6 µM; note: nearly all actives have a fitted effect of over 60% in size
In all, about 310,000 compounds went through this assay and about 17,000 (5.5%) were called active. Inconclusive results (about 11%) are left out. Calls come from the whole dose curve; as a rule, active = well fitted inhibition curve with a large enough effect; inconclusive = small, poorly fitted or top-dose-only effect, or effect the other way; inactive = no such curve, though single readings can be large or run the other way. For the sample, actives were picked, then their nearest neighbours and some compounds at random.
Assign a class; possible classes are active, inactive

Consider the following illustrative entries.
> print(dat)
                                    compound                             system.tested     group
 1   O=C(Nc1cc(-c2nc3ncccc3o2)ccc1Cl)c1ccco1  Nuclear receptor ROR-gamma (Mus musculus)  inactive
 2  O=C1c2ccccc2NC(c2ccccc2O)N1NS(=O)(=O)c1ccccc1 (configuration not stated)  Nuclear receptor ROR-gamma (Mus musculus)  inactive
 3  O=C(c1c(F)cccc1Cl)N1CCN(S(=O)(=O)c2ccc3c(c2)OCCCO3)CC1  Nuclear receptor ROR-gamma (Mus musculus)  inactive
 4                 Brc1cc(/C=N/n2cnnc2)oc1Br  Nuclear receptor ROR-gamma (Mus musculus)  inactive
 5  CCOC(=O)NN1C(=O)c2ccccc2NC1c1ccccc1O (configuration not stated)  Nuclear receptor ROR-gamma (Mus musculus)    active
 6            CCOc1cc(/C=N/n2cnnc2)c(Br)cc1O  Nuclear receptor ROR-gamma (Mus musculus)    active
 7                 Fc1ccc(Br)cc1/C=N/n1cnnc1  Nuclear receptor ROR-gamma (Mus musculus)  inactive
 8  Oc1ccccc1C=NC1CCCCC1N=Cc1ccccc1O (configuration not stated)  Nuclear receptor ROR-gamma (Mus musculus)  inactive
 9  Cc1onc(C(=O)Nc2ccc3c(c2)OCO3)c1[N+](=O)[O-]  Nuclear receptor ROR-gamma (Mus musculus)  inactive
10               O=C(N/N=C/c1ccccc1O)C1CCCC1  Nuclear receptor ROR-gamma (Mus musculus)    active

## Task What did the test return for Cc1ccc(C)c(C(C)NC(=O)C2CCCO2)c1 (configuration not stated) ?
## Result inactive

## Task Same read-out for C[C@H](NC(=O)C1CC(=O)N(c2ccc3c(c2)OCCO3)C1)C(=O)N1CCC(C(=O)O)CC1 (some centres not stated) ?
## Result inactive
